Below: a set of entries, each annotated with reported EC50.
Tested on: HBV
Protocol Summary: HBV inhibition assay in HepG2.2.15 cells (extracellular HBV DNA by qPCR)
Assay type: cell-based
Recorded Conditions: Hepatitis B virus, 120 h, extracellular HBV DNA in culture supernatant by qPCR, five days after compound treatment
Enter your answer as a number in nM; do not include the unit.

Would you please look over these solved cases?
Compound	Unit Symbol	EC50
CC(C)S(=O)(=O)c1cnn2c1CN(C(=O)Nc1cc(F)c(F)c(F)c1)[C@@H](C)C2	nM	21
C[C@H]1Cn2ncc(S(=O)(=O)N3CCC(F)(F)C3)c2CN1C(=O)Nc1cc(F)c(F)c(F)c1	nM	168
CC(C)CS(=O)(=O)c1cnn2c1CN(C(=O)Nc1ccc(F)c(Cl)c1)C(C)C2 (centres unmarked)	nM	24
C[C@H]1Cn2ncc(OC3CCN(S(C)(=O)=O)CC3)c2CN1C(=O)Nc1ccc(F)c(Cl)c1	nM	310
C[C@H]1Cn2ncc(S(=O)(=O)C3CCOC3)c2CN1C(=O)Nc1ccnc(Cl)c1 (some centres unmarked)	nM	871
C[C@H]1Cn2ncc(S(=O)(=O)C3CC3)c2CN1C(=O)Nc1cc(F)c(F)c(F)c1	nM	78

Task: Quick one: EC50 for "C[C@H]1Cn2ncc(S(=O)(=O)N3CC[C@@H](O)C3)c2CN1C(=O)Nc1cc(F)c(F)c(F)c1" ?
Result: 146

Task: Return reported EC50; argument: "C[C@H]1Cn2ncc(S(=O)(=O)C3CCOCC3)c2CN1C(=O)Nc1ccc(F)c(Cl)c1"
Result: 97
